# system: HIV-1 NefNL4-3 (Human immunodeficiency virus type 1 group M subtype B, UniProt P03406, A33V/T15A/T51N/V11I)
# test-name: Surface plasmon resonance binding to recombinant full-length Nef (NL4-3)
# conditions: Table 4; 1:1 Langmuir fit; T = 1/koff
Consider the following compounds; for each one, report its T, minutes (residence time).
Number only, in E + 00 minutes; omit the unit.

Determine its reported T, minutes (residence time): `Oc1c(CC2CCOCC2)c(C2CC2)nn1-c1nc2ccccc2[nH]1`
6.54

Determine its reported T, minutes (residence time): `CS(=O)(=O)c1ccc(-c2nn(-c3nc4ccccc4[nH]3)c(O)c2CCC2CCN(CC(F)(F)F)CC2)cc1`
6.80
